The origin of these recorded values is paper PMC8990529.

# measured-target: APE1 WT (human, UniProt P27695 1-318)
# Sequence (P27695 whole entry): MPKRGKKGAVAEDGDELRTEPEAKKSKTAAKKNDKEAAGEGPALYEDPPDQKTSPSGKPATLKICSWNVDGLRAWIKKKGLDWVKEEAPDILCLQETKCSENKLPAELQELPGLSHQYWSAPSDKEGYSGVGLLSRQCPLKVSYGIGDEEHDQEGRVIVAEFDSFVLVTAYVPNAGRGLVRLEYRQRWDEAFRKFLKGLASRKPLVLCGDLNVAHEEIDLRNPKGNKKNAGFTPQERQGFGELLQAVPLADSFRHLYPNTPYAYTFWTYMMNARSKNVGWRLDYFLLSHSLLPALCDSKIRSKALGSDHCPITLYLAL
# experiment-description: competition (fluorescence polarization; printed as EC50); 640 nM APE1, 10 nM 6-FAM G4-forming KRAS oligo as probe; FP: 50 mM Tris-HCl pH 7.5, 50 mM KCl, 1 mM MgCl2, 1 mM DTT, 0.1 mM EDTA, 10 nM oligo, 30 min RT, read at 25 C; Trp quenching: same buffer, 500 nM APE1, 20 C
# experimental-setup: protein: recombinant; parallel G4 (CD), prefolded in 50 mM KCl
endpoint: IC50 (nM)

binder="AGGGCGGTGTGGGAAGAGGGAAGAGGGGGAGG (structured_DNA) [G4-forming KRAS oligo (32R), unlabeled]" unit=nM recorded_result=2300
